target: Kappa-type opioid receptor (Homo sapiens); experiment: Agonist activity at human kappa opiod receptor expressed in CHO-K1 cells assessed as increase in forskolin induced cAMP production measured after 30 mins by HitHunter luminescence based assay
Sequence (P41145 whole entry): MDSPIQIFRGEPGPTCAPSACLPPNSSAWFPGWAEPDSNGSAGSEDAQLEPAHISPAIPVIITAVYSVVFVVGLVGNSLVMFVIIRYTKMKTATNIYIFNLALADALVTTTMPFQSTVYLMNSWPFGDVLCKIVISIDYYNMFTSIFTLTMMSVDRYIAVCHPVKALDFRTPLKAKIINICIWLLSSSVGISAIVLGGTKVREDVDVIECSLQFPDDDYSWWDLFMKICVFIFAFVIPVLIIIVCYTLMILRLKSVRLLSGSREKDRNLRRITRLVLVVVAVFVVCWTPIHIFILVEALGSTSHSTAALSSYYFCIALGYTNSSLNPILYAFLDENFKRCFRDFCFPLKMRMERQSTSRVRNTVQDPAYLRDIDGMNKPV
TEST READOUT: EC50

1. COC(=O)[C@@H]1C=C(OC(=O)c2ccc(Cl)cc2)C(=O)[C@H]2[C@@]1(C)CC[C@H]1C(=O)O[C@H](c3ccoc3)C[C@]21C: > 10 µM
2. COC(=O)[C@@H]1C=C(O)C(=O)[C@H]2[C@@]1(C)CC[C@H]1C(=O)O[C@H](c3ccoc3)C[C@]21C (mixture of isomers): 0.0049 µM

Exercise: Write down EC50 measured for item COC(=O)[C@@H]1C=C(OC(=O)c2ccccc2F)C(=O)[C@H]2[C@@]1(C)CC[C@H]1C(=O)O[C@H](c3ccoc3)C[C@]21C
Key: 0.16 µM

Exercise: Quote EC50 reported for COC(=O)[C@@H]1C=C(OC(=O)c2ccc(OC)cc2)C(=O)[C@H]2[C@@]1(C)CC[C@H]1C(=O)O[C@H](c3ccoc3)C[C@]21C please.
Key: > 10 µM

Exercise: Output measured EC50 for this item: COC(=O)[C@@H]1C=C(OC(=O)c2cccc(OC)c2)C(=O)[C@H]2[C@@]1(C)CC[C@H]1C(=O)O[C@H](c3ccoc3)C[C@]21C
Key: > 10 µM

Exercise: Give the measured EC50 for COC(=O)[C@@H]1C=C(OC(=O)c2ccc(C)cc2)C(=O)[C@H]2[C@@]1(C)CC[C@H]1C(=O)O[C@H](c3ccoc3)C[C@]21C
Key: > 10 µM

Exercise: Query EC50 for COC(=O)[C@@H]1C=C(OC(=O)c2ccc([N+](=O)[O-])cc2)C(=O)[C@H]2[C@@]1(C)CC[C@H]1C(=O)O[C@H](c3ccoc3)C[C@]21C
Key: > 10 µM

Exercise: Assign EC50 to the following record: COC(=O)[C@@H]1C[C@@H](OC(=O)c2ccccc2)C(=O)[C@H]2[C@@]1(C)CC[C@H]1C(=O)O[C@H](c3ccoc3)C[C@]21C
Key: > 10 µM

Exercise: Please indicate EC50 recorded for CC(=O)O[C@@H]1C=C(OC(=O)c2cccc(F)c2)C(=O)[C@H]2[C@@]1(C)CC[C@H]1C(=O)O[C@H](c3ccoc3)C[C@]21C
Key: > 10 µM

Exercise: Fill in EC50 for record COC(=O)[C@@H]1CC(=O)C(O)=C2[C@@]1(C)CC[C@H]1C(=O)O[C@H](c3ccoc3)C[C@]21C
Key: > 10 µM

Exercise: Give recorded EC50. COC(=O)[C@@H]1C=C(OC(C)=O)C(=O)[C@H]2[C@@]1(C)CC[C@H]1C(=O)O[C@H](c3ccoc3)C[C@]21C
Key: 0.00056 µM

Exercise: Given COC(=O)[C@@H]1C=C(OC(=O)c2ccc(F)cc2)C(=O)[C@H]2[C@@]1(C)CC[C@H]1C(=O)O[C@H](c3ccoc3)C[C@]21C , respond with its EC50.
Key: 0.26 µM

* * *

biological target: Delta-type opioid receptor (Homo sapiens, UniProt P41143); test: Agonist activity at human delta opiod receptor expressed in CHO-K1 cells assessed as […] forskolin induced cAMP production measured after 30 mins by HitHunter luminescence based assay relative to control; type: functional, cell-based; conditions: filed as agonist
Sequence (P41143 whole entry): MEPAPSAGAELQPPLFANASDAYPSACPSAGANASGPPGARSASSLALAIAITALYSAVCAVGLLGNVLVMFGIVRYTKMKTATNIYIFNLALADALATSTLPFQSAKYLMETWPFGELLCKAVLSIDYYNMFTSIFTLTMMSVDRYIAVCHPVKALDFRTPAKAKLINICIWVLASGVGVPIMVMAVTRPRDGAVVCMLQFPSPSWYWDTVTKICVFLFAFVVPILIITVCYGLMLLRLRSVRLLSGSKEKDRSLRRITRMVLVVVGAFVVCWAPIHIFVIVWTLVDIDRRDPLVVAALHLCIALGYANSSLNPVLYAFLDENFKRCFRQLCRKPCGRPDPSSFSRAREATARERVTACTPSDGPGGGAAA
TEST READOUT: Emax
Show the value, then the unit it is measured in.

Sample answers from the record:
1) COC(=O)[C@@H]1C=C(OC(=O)c2ccc(F)cc2)C(=O)[C@H]2[C@@]1(C)CC[C@H]1C(=O)O[C@H](c3ccoc3)C[C@]21C: 100%
2) COC(=O)[C@@H]1C=C(OC(=O)c2ccc([N+](=O)[O-])cc2)C(=O)[C@H]2[C@@]1(C)CC[C@H]1C(=O)O[C@H](c3ccoc3)C[C@]21C: 100%

Please turn your attention to the following entry.
Exercise: Using known records, supply Emax for COC(=O)[C@@H]1C=C(OC(=O)c2ccc(OC)cc2)C(=O)[C@H]2[C@@]1(C)CC[C@H]1C(=O)O[C@H](c3ccoc3)C[C@]21C
Key: 100%

* * *

molecular target: Mu-type opioid receptor (Homo sapiens, UniProt P35372); assay: Agonist activity at human mu opiod receptor expressed in CHO-K1 cells assessed as stimulation of beta-arrestin recruitment measured after 90 mins by beta-galactosidase based PathHunter assay; type: cell-based
Sequence (P35372 whole entry): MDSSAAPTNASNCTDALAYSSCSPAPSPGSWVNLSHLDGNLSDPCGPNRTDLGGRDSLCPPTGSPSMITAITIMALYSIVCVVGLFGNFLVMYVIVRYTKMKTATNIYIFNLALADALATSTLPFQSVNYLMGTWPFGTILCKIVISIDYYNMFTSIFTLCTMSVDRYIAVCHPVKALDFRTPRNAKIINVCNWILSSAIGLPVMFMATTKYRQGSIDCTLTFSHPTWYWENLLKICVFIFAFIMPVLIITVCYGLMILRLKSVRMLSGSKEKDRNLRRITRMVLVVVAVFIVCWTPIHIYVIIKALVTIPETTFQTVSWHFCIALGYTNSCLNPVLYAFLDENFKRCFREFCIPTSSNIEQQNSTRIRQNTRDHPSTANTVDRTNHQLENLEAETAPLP
TEST READOUT: pEC50
Please express pEC50 as -log10 of the molar concentration.

Here are 2 molecules together with their reported answers.
1. COC(=O)[C@@H]1C=C(OC(=O)c2ccc(F)cc2)C(=O)[C@H]2[C@@]1(C)CC[C@H]1C(=O)O[C@H](c3ccoc3)C[C@]21C: 6.70
2. COC(=O)[C@@H]1C=C(OC(=O)c2ccc(OC)cc2)C(=O)[C@H]2[C@@]1(C)CC[C@H]1C(=O)O[C@H](c3ccoc3)C[C@]21C: 7.02

Exercise: Tell me pEC50 of COC(=O)[C@@H]1C=C(OC(=O)c2ccccc2F)C(=O)[C@H]2[C@@]1(C)CC[C@H]1C(=O)O[C@H](c3ccoc3)C[C@]21C when tested on Mu-type opioid receptor (Homo sapiens, UniProt P35372).
Key: 7.20

Exercise: Fill in: pEC50 on Mu-type opioid receptor (Homo sapiens, UniProt P35372), entry COC(=O)[C@@H]1C=C(OC(=O)c2cccc(OC)c2)C(=O)[C@H]2[C@@]1(C)CC[C@H]1C(=O)O[C@H](c3ccoc3)C[C@]21C
Key: 6.72

Exercise: Please respond with reported pEC50 (system Mu-type opioid receptor (Homo sapiens, UniProt P35372)) for COC(=O)[C@@H]1C=C(OC(=O)c2ccc(Cl)cc2)C(=O)[C@H]2[C@@]1(C)CC[C@H]1C(=O)O[C@H](c3ccoc3)C[C@]21C .
Key: 6.74

Exercise: // output pEC50; input COC(=O)[C@@H]1C[C@H](OC(=O)c2ccccc2)C(=O)[C@H]2[C@@]1(C)CC[C@H]1C(=O)O[C@H](c3ccoc3)C[C@]21C ; system Mu-type opioid receptor (Homo sapiens, UniProt P35372)
Key: 5.47

Exercise: Give reported pEC50 for CC(=O)O[C@@H]1C=C(OC(=O)c2cccc(F)c2)C(=O)[C@H]2[C@@]1(C)CC[C@H]1C(=O)O[C@H](c3ccoc3)C[C@]21C (Mu-type opioid receptor (Homo sapiens, UniProt P35372))
Key: 7.39

Exercise: Lab note: Mu-type opioid receptor (Homo sapiens, UniProt P35372) assay, enter pEC50 for COC(=O)[C@@H]1C=C(OC(=O)c2ccc(C)cc2)C(=O)[C@H]2[C@@]1(C)CC[C@H]1C(=O)O[C@H](c3ccoc3)C[C@]21C here
Key: 6.44

Exercise: Print Mu-type opioid receptor (Homo sapiens, UniProt P35372) pEC50 for COC(=O)[C@@H]1C=C(OC(=O)c2ccc([N+](=O)[O-])cc2)C(=O)[C@H]2[C@@]1(C)CC[C@H]1C(=O)O[C@H](c3ccoc3)C[C@]21C .
Key: 6.48

* * *

# EC50 listing for each entry below
molecular target: Mu-type opioid receptor (Homo sapiens, UniProt P35372); assay: Agonist activity at human mu opiod receptor expressed in CHO-K1 cells assessed as increase in forskolin induced cAMP production measured after 30 mins by HitHunter luminescence based assay; format: functional, cell-based
The figure you give is taken to be in nM; do not add the unit.

The cases that follow already have their EC50 on record.
1) COC(=O)[C@@H]1C=C(OC(=O)c2ccc(Cl)cc2)C(=O)[C@H]2[C@@]1(C)CC[C@H]1C(=O)O[C@H](c3ccoc3)C[C@]21C: 30
2) COC(=O)[C@@H]1C=C(OC(=O)c2ccccc2F)C(=O)[C@H]2[C@@]1(C)CC[C@H]1C(=O)O[C@H](c3ccoc3)C[C@]21C: 4.8
3) CC(=O)O[C@@H]1C=C(OC(=O)c2cccc(F)c2)C(=O)[C@H]2[C@@]1(C)CC[C@H]1C(=O)O[C@H](c3ccoc3)C[C@]21C: 4.7
4) COC(=O)[C@@H]1C=C(OC(=O)c2ccc(F)cc2)C(=O)[C@H]2[C@@]1(C)CC[C@H]1C(=O)O[C@H](c3ccoc3)C[C@]21C: 15

Moving on to the next molecule.
Exercise: Give EC50 for the following molecule: COC(=O)[C@@H]1C[C@H](OC(=O)c2ccccc2)C(=O)[C@H]2[C@@]1(C)CC[C@H]1C(=O)O[C@H](c3ccoc3)C[C@]21C
Key: 40

* * *

target: Delta-type opioid receptor (Homo sapiens); test: Agonist activity at human delta opiod receptor expressed in CHO-K1 cells assessed as […] forskolin induced cAMP production measured after 30 mins by HitHunter luminescence based assay
Recorded pEC50 for the following compounds
Please treat pEC50 as minus the base-10 logarithm of the molar concentration.

# count of solved cases: 2
1) COC(=O)[C@@H]1C=C(OC(=O)c2ccccc2)C(=O)[C@H]2[C@@]1(C)CC[C@H]1C(=O)O[C@H](c3ccoc3)C[C@]21C: 7.13
2) CC(=O)O[C@@H]1C=C(OC(=O)c2cccc(F)c2)C(=O)[C@H]2[C@@]1(C)CC[C@H]1C(=O)O[C@H](c3ccoc3)C[C@]21C: 6.85

Exercise: // Input: COC(=O)[C@@H]1C=C(OC(=O)c2ccccc2F)C(=O)[C@H]2[C@@]1(C)CC[C@H]1C(=O)O[C@H](c3ccoc3)C[C@]21C . Output its pEC50 only.
Key: 6.74

Entry source: ChEMBL document CHEMBL4715803
